- SYSTEM NAME: ELK (3% skim milk powder solution)
- PROTOCOL NOTES: ELISA, ELK-coated control well, ~50 ng iMab per well, anti-VSV-HRP; urea-purified
QUANTITY: Absorbtion (450 nm) (A450)
Numbers only, in A450.

>>> value_reported("iMab1302 (designed binder, not shown: small tags and cut ends) VVKVVIKPSQNFIENGEDKKFTCRASGYTIGPKCIGWFSQNPEDDSTNVATINMGGGITYYGDSVKERFDIRRDNAKDTSTLSIDDAQPEDAGIYKCAADSTIYASYYECGHGLSTGGYGYDSEATVGVDIFVKLM")
0.045
>>> value_reported("iMab1300 (designed binder, not shown: small tags and cut ends) LQVDIKPSQGEISVGESKFFLCQASGYTIGPCISWFSPNGEKLNMGSSTLTIYNANIDDAGIYKCAADSTIYASYYECGHGLSTGGYGYQSEATVNVKIFQ")
0.041
>>> value_reported("iMab1202 (designed binder, not shown: small tags and cut ends) IVKLVMEKRGNFENGQDCKLTIRASGYTIGPACDGFFCQFPSDDSFSTEDNMGGGITVNDAMKPQFDIRRDNAKGTWTLSMDFQPEGIYEMQCAADSTIYASYYECGHGLSTGGYGYDNPVRLGGFDVDVPDV")
0.041
>>> value_reported("iMab1602 (designed binder, not shown: small tags and cut ends) AVKPVIGSKAPNFGENGDVKTIDRASGYTIGPTCGGVFFQGPTDDSTNVATINMGGGITYYGDSVKETFDIRRDNAKSTRTESYDDNQPEGLTEVKCAADSTIYASYYECGHGLSTGGYGYDVSSRLYGYDILVGTQ")
0.043
>>> value_reported("iMab111 (designed binder, not shown: small tags and cut ends) NVKLVCKGGNFVENDDDLKLTCRAEGYTIGPYCMGWFRQAPNDDSTNVATINMGGGITYYGDSVKERFDIRRDNASNTVTLSMDDLQPEDSAEYNCAGDSTIYASYYECGHGLSTGGYGYDSHYRCQGTDVTVSS")
0.043
>>> value_reported("iMab122 (designed binder, not shown: small tags and cut ends) NVKLVEKGGNFVENDDDLKLTCRASGRTFSSRTMGWFRQAPNDDSTNVATIRWNGGSTYYTNYGDSVKERFDIRVDQASNTVTLSMDDLQPEDSAEYNCAGTDIGDGWSGRYDYRGQGTDVTVSS")
0.051

Alright, here's another binder for you.
Fill in reported Absorbtion (450 nm) for this entry: iMab100 (designed binder, not shown: small tags and cut ends) NVKLVEKGGNFVENDDDLKLTCRAEGYTIGPYCMGWFRQAPNDDSTNVATINMGGGITYYGDSVKERFDIRRDNASNTVTLSMDDLQPEDSAEYNCAGDSTIYASYYECGHGLSTGGYGYDSHYRGQGTDVTVSS
0.04
